Measured minimum inhibitory concentration of antibiotic, Test Organism 13, listed per entry.
Test system: Staphylococcus epidermidis
Assay: standard microtiter assay, minimum inhibitory concentration
Format: cell-based
Details: Test Organism 13, strain of Staphylococcus epidermidis
Express your answer in µg/mL, writing the number without its unit.

Please review the entries below; each comes with its answer.
- COMPOUND: "CCCCCCCCCC(=O)NC1C(Oc2c3cc4cc2Oc2c(Cl)cc(cc2Cl)C(O)C2NC(=O)C(NC(=O)C4NC(=O)C4NC(=O)C(NC(=O)C(NC)c5ccc(O)c(c5)Oc5cc(O)c(Cl)c4c5)C(O)c4ccc(c(Cl)c4)O3)c3ccc(O)c(c3)-c3c(OC4OC(CO)C(O)C(O)C4O)cc(O)cc3C(C(N)=O)NC2=O)OC(C(N)=O)C(O)C1O (stereo not drawn) [Compound 2j, Ardacin A diamide]"
  UNITS_TEXT: "µg/mL"
  EXPERIMENTAL_RESULT: 3100
- COMPOUND: "CNC1C(=O)NC2C(=O)NC(C(=O)NC3C(=O)NC4C(=O)NC(C(=O)NC(C(N)=O)c5cc(O)cc(OC6OC(CO)C(O)C(O)C6O)c5-c5cc4ccc5O)C(O)c4cc(Cl)c(c(Cl)c4)Oc4cc3cc(c4O)Oc3ccc(cc3Cl)C2O)c2cc(cc(O)c2Cl)Oc2cc1ccc2O (stereo not drawn) [Compound 2n, Ardacin mannosylaglycone amide]"
  UNITS_TEXT: "µg/mL"
  EXPERIMENTAL_RESULT: 1600

// switching to the query compound
CNC1C(=O)NC2C(=O)NC(C(=O)NC3C(=O)NC4C(=O)NC(C(=O)NC(C(=O)NCCO)c5cc(O)cc(O)c5-c5cc4ccc5O)C(O)c4cc(Cl)c(c(Cl)c4)Oc4cc3cc(c4O)Oc3ccc(cc3Cl)C2O)c2cc(cc(O)c2Cl)Oc2cc1ccc2O (stereo not drawn) [Compound 2d, Ardacin aglycone-(2-hydroxyethyl amide)] tested on Staphylococcus epidermidis gave minimum inhibitory concentration of antibiotic, Test Organism 13: 200

----------
Test system: Staphylococcus epidermidis
Assay: standard microtiter assay, minimum inhibitory concentration
Type: cell-based
Details: Test Organism 11, strain of Staphylococcus epidermidis
VALUE_KIND: minimum inhibitory concentration of antibiotic, Test Organism 11 (µg/mL)
Give your result in µg/mL as a bare value.

// known answers, use as guide
- COMPOUND: "CNC1C(=O)NC2C(=O)NC(C(=O)NC3C(=O)NC4C(=O)NC(C(=O)NC(C(=O)NCCN)c5cc(O)cc(OC6OC(CO)C(O)C(O)C6O)c5-c5cc4ccc5O)C(O)c4cc(Cl)c(c(Cl)c4)Oc4cc3cc(c4O)Oc3ccc(cc3Cl)C2O)c2cc(cc(O)c2Cl)Oc2cc1ccc2O (stereo not drawn)"
  EXPERIMENTAL_RESULT: 800
- COMPOUND: "CCCCCCCCCC(=O)NC1C(Oc2c3cc4cc2Oc2c(Cl)cc(cc2Cl)C(O)C2NC(=O)C(NC(=O)C4NC(=O)C4NC(=O)C(NC(=O)C(NC)c5ccc(O)c(c5)Oc5cc(O)c(Cl)c4c5)C(O)c4ccc(c(Cl)c4)O3)c3ccc(O)c(c3)-c3c(OC4OC(CO)C(O)C(O)C4O)cc(O)cc3C(C(=O)NCCO)NC2=O)OC(C(=O)NCCO)C(O)C1O (stereo not drawn) [Compound 2l, Ardacin A-di-(2-hydroxyethyl amide)]"
  EXPERIMENTAL_RESULT: 800

Reported minimum inhibitory concentration of antibiotic, Test Organism 11 (Staphylococcus epidermidis) for entry CNC1C(=O)NC2C(=O)NC(C(=O)NC3C(=O)NC4C(=O)NC(C(=O)NC(C(=O)O)c5cc(O)cc(O)c5-c5cc4ccc5O)C(O)c4cc(Cl)c(c(Cl)c4)Oc4cc3cc(c4O)Oc3ccc(cc3Cl)C2O)c2cc(cc(O)c2Cl)Oc2cc1ccc2O (stereo not drawn) [Compound 2a, Ardacin aglycone, reference compound] is 1600
